# System: K-562 leukemia
# protocolDescription: NCI-60 one-dose screen, 48 h
# conditionSummary: 10 µM
Compounds without any hit were thinned out: in the full panel of roughly 83,000, 20% have a hit. Active and inactive are the calls of the source. The calls were made as follows: active = growth percent below 10; inactive = the rest.
A correct response names exactly one class from active, inactive

Solved cases (3 shown):
- compound: "C[C@H]1[C@@H](Oc2ccc(-c3cn(-c4ccnc5cc(Cl)ccc45)nn3)cc2)O[C@@H]2OC3(C)CC[C@H]4[C@H](C)CC[C@@H]1[C@@]24OO3"
  testedOn: "K-562 leukemia"
  group: "inactive"
- compound: "C[C@H]1[C@H](OC(=O)CCC(=O)N(CCCc2cn(-c3ccc([N+](=O)[O-])cc3)nn2)CCNc2ccnc3cc(Cl)ccc23)O[C@@H]2OC3(C)CC[C@H]4[C@H](C)CC[C@@H]1[C@@]24OO3"
  testedOn: "K-562 leukemia"
  group: "active"
- compound: "COc1ccc2cc([C@H](C)C(=O)[Se]CCC#N)ccc2c1"
  testedOn: "K-562 leukemia"
  group: "active"

Query :: Hi team, can someone confirm the assay call for COP(=O)(CC(F)(F)C(F)(F)F)OC ?
Result :: inactive

Query :: Hi team, can someone confirm the assay call for C=CC[Se]C(=O)c1ccc(C(=O)[Se]CC=C)s1 ?
Result :: active

Query :: Hi team, can someone confirm the assay call for COc1cc(OC)c(/C=C/C(=O)c2nc3ccccc3n2Cc2ccc(F)cc2)c(OC)c1 ?
Result :: inactive

Query :: Hi team, can someone confirm the assay call for CC(=C\C(=O)Oc1ccc2c3c1OC1C(O)CCC4(O)C(C2)N(CC2CCC2)CCC314)/C=C1\CCCc2ccccc21 (configuration not stated) ?
Result :: inactive

Query :: Hi team, can someone confirm the assay call for COC(=O)c1ccc(-n2cc(CCCN(CCNc3ccnc4cc(Cl)ccc34)C(=O)CCC(=O)O[C@@H]3O[C@@H]4OC5(C)CC[C@H]6[C@H](C)CC[C@@H]([C@H]3C)[C@@]46OO5)nn2)cc1 ?
Result :: active

Query :: Hi team, can someone confirm the assay call for CC1=C(COCCOC(=O)c2ccc(S(=O)(=O)F)cc2)C2=C(C)C3(CC3)[C@@](C)(O)C(=O)C2=C1 ?
Result :: inactive

Query :: Hi team, can someone confirm the assay call for COCCOCCOCCOc1ccc(-n2cc(CCCN(CCNc3ccnc4cc(Cl)ccc34)C(=O)CCC(=O)O[C@@H]3O[C@@H]4OC5(C)CC[C@H]6[C@H](C)CC[C@@H]([C@H]3C)[C@@]46OO5)nn2)cc1 ?
Result :: inactive

Query :: Hi team, can someone confirm the assay call for O=C(/C=C/c1ccc(F)cc1)c1nc2ccccc2n1Cc1ccc(F)cc1 ?
Result :: active

Query :: Hi team, can someone confirm the assay call for O=C(/C=C/c1cccc(Br)c1)c1nc2ccccc2n1Cc1ccc(F)cc1 ?
Result :: active

Query :: Hi team, can someone confirm the assay call for COc1ccc(/C=C/C(=O)c2nc3ccccc3n2Cc2ccc(Br)cc2)cc1 ?
Result :: inactive

Query :: Hi team, can someone confirm the assay call for CC(C)N=C([Se])NC(=O)c1ccccc1 ?
Result :: inactive

Query :: Hi team, can someone confirm the assay call for COC(=O)C[C@](O)(CCC(C)C)C(=O)O[C@@H]1C(OC)=C[C@]23CCCN2CCc2cc4c(cc2[C@H]13)OCO4 ?
Result :: active

Query :: Hi team, can someone confirm the assay call for O=C(/C=C/c1cccc(Br)c1)c1nc2ccccc2n1Cc1ccc(Br)cc1 ?
Result :: active

Query :: Hi team, can someone confirm the assay call for C[C@H]1[C@@H](CC(=O)N[C@@H](Cc2coc3ccccc23)B(O)O)O[C@@H]2OC3(C)CC[C@H]4[C@H](C)CC[C@@H]1[C@@]24OO3 ?
Result :: active

###

# Test system: MCF7 breast
# protocolDescription: NCI-60 one-dose screen, 48 h (100 = growth as untreated, 0 = no growth, -100 = all killed)
# conditionSummary: 10 µM
Compounds without any hit were thinned out: in the full panel of roughly 83,000, 20% have a hit. Active and inactive are the calls of the source. How the source made its calls: active means growth percent below 10; inactive means the rest.
assayMetric: growth

- compoundStructure: "COc1cc(OC)c(S(=O)(=O)N(CCCl)CCCl)cc1C(=O)/C=C/c1cc(OC)c(OC)c(OC)c1"
  growth: "-39.2% (active)"
- compoundStructure: "C=CC[Se]C(=O)c1ccc(C(=O)[Se]CC=C)s1"
  growth: "-55.4% (active)"
- compoundStructure: "CCC[Se]C(=O)c1ccc(C(=O)[Se]CCC)s1"
  growth: "-34.6% (active)"

Moving on to another molecule below.
Query :: Record request: growth value, item CC[C@]12C=CCN3CC[C@@]4(c5ccc(OC)cc5N(C)[C@H]4[C@@](O)(C(=O)OC)[C@@H]1OC(=O)CCC[P+](c1ccc(C)cc1)(c1ccc(C)cc1)c1ccc(C)cc1)[C@@H]32
Result :: -76.3% (active)

###

# Test system: HL-60(TB) leukemia
# protocolDescription: NCI-60 one-dose screen, 48 h
# conditionSummary: 10 µM unless noted
Compounds without any hit were thinned out: in the full panel of roughly 83,000, 20% have a hit. The source made the active and inactive calls. The calls were made as follows: active = growth percent below 10; inactive = the rest.
A correct response names exactly one class from active, inactive

Solved cases (3 shown):
- compound: "NC1=NC(c2ccccc2Cl)N=C(Nc2nn[nH]n2)N1 (stereo not given)"
  group: "inactive"
- compound: "Cn1cc(-c2cc(N)n3nc(-c4c[nH]c5ccc(Br)cc45)cc3n2)c2cc(Br)cnc21"
  group: "active"
- compound: "O=C(c1ccc(O)cc1)C1[C@H](c2ccc(Br)cc2)[C@@H](c2ccccc2)NC12C(=O)Nc1ccccc12 (stereo not given in full)"
  group: "inactive"

Query :: Hi team, can someone confirm the assay call for COc1ccccc1C(=O)NN1C(=O)/C(=C/C2=Cc3ccccc3OC2)SC1=S ?
Result :: inactive

Query :: Hi team, can someone confirm the assay call for COc1ccc(N=Nc2c(N)nn3c(-c4ccc5c(c4)C=S=C5)ccnc23)cc1 ?
Result :: inactive

###

# Test system: MDA-MB-435 melanoma
# protocolDescription: NCI-60 one-dose screen, 48 h
# conditionSummary: 10 µM
Compounds without any hit were thinned out: in the full panel of roughly 83,000, 20% have a hit. The source made the active and inactive calls. How the source made its calls: active means growth percent below 10; inactive means the rest.
A correct response names exactly one class from label 1 (active), label 0 (inactive)

- compound: "O=C(/C=C/c1ccccc1)c1nc2ccccc2n1Cc1ccc(F)cc1"
  group: "label 1"
- compound: "CC[C@]12C=CCN3CC[C@@]4(c5ccc(OC)cc5N(C)[C@H]4[C@@](O)(C(=O)OC)[C@@H]1OC(=O)CCC[P+](c1ccc(F)cc1)(c1ccc(F)cc1)c1ccc(F)cc1)[C@@H]32"
  group: "label 1"

Query :: Hi team, can someone confirm the assay call for C=CC[Se]C(=O)c1ccc(C(=O)[Se]CC=C)s1 ?
Result :: label 1

Query :: Hi team, can someone confirm the assay call for COC(=O)C[C@](O)(CCCC(C)C)C(=O)O[C@H]1C(OC)=C[C@@]23CCCN2CCc2cc4c(cc2[C@@H]13)OCO4 ?
Result :: label 1

Query :: Hi team, can someone confirm the assay call for O=C(NCCCCC(c1ccc(F)cc1)c1ccc(F)cc1)Nc1ccc([N+](=O)[O-])c(C(F)(F)F)c1 ?
Result :: label 1

Query :: Hi team, can someone confirm the assay call for CCOC(=O)C1=C(Nc2ccccc2)C(=O)OC12C(=O)Nc1ccccc12 (stereo unspecified) ?
Result :: label 0

Query :: Hi team, can someone confirm the assay call for CCOP(=O)(OCC)C(NC(C)=O)C(=O)SCCN (stereo unspecified) ?
Result :: label 0

Query :: Hi team, can someone confirm the assay call for C[C@H]1[C@@H](Oc2ccc(-c3cn(-c4ccnc5cc(Cl)ccc45)nn3)cc2)O[C@@H]2OC3(C)CC[C@H]4[C@H](C)CC[C@@H]1[C@@]24OO3 ?
Result :: label 0

Query :: Hi team, can someone confirm the assay call for CC(C)N=C([Se])NC(=O)c1ccccc1 ?
Result :: label 0

Query :: Hi team, can someone confirm the assay call for C[C@H]1[C@H](OC(=O)CCC(=O)N(CCCc2cn(-c3ccc([N+](=O)[O-])cc3)nn2)CCNc2ccnc3cc(Cl)ccc23)O[C@@H]2OC3(C)CC[C@H]4[C@H](C)CC[C@@H]1[C@@]24OO3 ?
Result :: label 0

Query :: Hi team, can someone confirm the assay call for C=CC[Se]C(=O)c1cncc(C(=O)[Se]CC=C)c1 ?
Result :: label 1

Query :: Hi team, can someone confirm the assay call for CC12CCC3(CCC(=O)NCCCNc4ccnc5cc(Cl)ccc45)[C@@](C)(OO[C@]3(C)O1)O2 ?
Result :: label 0

###

# System: HL-60(TB) leukemia
# protocolDescription: NCI-60 one-dose screen, 48 h (100 = growth as untreated, 0 = no growth, -100 = all killed)
# conditionSummary: 10 µM unless noted
This is part of a sample that, as a whole, favours compounds with a hit. Of some 83,000 tested, about 20% had one in any assay.
assayMetric: growth (%)
Numbers only, in %.

Observe how each entry below is paired with its result.
- compoundStructure: "COc1ccc(NC(=O)N/N=C/c2c[nH]c3ccccc23)cc1"
  testedOn: "HL-60(TB) leukemia"
  assayMetric: "growth"
  unitName: "%"
  reportedValue: 1.79
- compoundStructure: "O=C(NO)c1ccc(Cn2ccc3c(Nc4ccccc4)ncnc32)cc1"
  testedOn: "HL-60(TB) leukemia"
  assayMetric: "growth"
  unitName: "%"
  reportedValue: 0.922
- compoundStructure: "C[C@H]1[C@H](OC(=O)CCC(=O)N(CCCc2cn(-c3ccc([N+](=O)[O-])cc3)nn2)CCNc2ccnc3cc(Cl)ccc23)O[C@@H]2OC3(C)CC[C@H]4[C@H](C)CC[C@@H]1[C@@]24OO3"
  testedOn: "HL-60(TB) leukemia"
  assayMetric: "growth"
  unitName: "%"
  reportedValue: -24.2

Moving on to another compound below.
Query :: Record request: growth value, item Cn1cc(-c2cc(N)n3nc(-c4c[nH]c5ccc(Br)cc45)cc3n2)c2cccnc21
Result :: -49.9
